Biological target: Vascular endothelial growth factor receptor 3 (Homo sapiens)
Sequence (P35916 whole entry): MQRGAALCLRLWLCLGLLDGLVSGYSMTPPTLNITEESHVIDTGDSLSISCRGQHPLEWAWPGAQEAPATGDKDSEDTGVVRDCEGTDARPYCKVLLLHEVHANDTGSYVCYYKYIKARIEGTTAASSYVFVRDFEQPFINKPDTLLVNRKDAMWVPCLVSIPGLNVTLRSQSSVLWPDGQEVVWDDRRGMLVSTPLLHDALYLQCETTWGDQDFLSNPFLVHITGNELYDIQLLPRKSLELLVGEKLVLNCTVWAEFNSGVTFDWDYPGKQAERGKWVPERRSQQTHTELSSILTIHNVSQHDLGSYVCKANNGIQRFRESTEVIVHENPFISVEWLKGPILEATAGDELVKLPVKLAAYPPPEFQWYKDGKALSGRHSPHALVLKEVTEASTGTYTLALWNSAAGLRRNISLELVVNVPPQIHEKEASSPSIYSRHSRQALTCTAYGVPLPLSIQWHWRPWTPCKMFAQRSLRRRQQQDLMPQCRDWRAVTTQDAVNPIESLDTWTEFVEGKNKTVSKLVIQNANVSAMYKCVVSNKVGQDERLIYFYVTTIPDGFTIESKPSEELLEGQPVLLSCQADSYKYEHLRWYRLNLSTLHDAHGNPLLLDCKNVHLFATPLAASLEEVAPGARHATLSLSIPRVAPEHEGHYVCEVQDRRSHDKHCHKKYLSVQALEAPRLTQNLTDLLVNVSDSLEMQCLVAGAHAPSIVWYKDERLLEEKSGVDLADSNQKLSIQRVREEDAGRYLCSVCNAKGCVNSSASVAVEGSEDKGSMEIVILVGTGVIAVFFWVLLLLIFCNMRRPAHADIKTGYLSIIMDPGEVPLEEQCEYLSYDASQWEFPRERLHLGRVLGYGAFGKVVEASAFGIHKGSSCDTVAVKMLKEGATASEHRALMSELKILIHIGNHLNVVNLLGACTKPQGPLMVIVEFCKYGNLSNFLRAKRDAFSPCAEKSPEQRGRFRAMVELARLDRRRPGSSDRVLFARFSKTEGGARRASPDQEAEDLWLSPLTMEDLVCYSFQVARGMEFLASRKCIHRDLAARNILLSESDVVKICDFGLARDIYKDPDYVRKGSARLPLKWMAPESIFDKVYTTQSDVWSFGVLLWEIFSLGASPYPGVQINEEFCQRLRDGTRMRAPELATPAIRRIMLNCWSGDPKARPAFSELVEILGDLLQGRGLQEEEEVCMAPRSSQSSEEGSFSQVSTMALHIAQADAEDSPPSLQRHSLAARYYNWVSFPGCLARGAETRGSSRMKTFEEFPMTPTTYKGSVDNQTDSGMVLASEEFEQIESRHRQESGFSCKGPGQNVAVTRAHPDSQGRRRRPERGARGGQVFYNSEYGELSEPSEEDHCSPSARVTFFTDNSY
pIC50: −log10 of the molar value.
readout label: pIC50

# given smiles, reading
records = [
    ("O=C(NCCCN1CCCC1=O)c1cnccc1Nc1nc(-c2cc(Br)ccc2F)nc2nccnc12", 6.91),
]

====

Molecular target: Vascular endothelial growth factor receptor 2 (Homo sapiens, UniProt P35968)
Sequence (P35968 whole entry): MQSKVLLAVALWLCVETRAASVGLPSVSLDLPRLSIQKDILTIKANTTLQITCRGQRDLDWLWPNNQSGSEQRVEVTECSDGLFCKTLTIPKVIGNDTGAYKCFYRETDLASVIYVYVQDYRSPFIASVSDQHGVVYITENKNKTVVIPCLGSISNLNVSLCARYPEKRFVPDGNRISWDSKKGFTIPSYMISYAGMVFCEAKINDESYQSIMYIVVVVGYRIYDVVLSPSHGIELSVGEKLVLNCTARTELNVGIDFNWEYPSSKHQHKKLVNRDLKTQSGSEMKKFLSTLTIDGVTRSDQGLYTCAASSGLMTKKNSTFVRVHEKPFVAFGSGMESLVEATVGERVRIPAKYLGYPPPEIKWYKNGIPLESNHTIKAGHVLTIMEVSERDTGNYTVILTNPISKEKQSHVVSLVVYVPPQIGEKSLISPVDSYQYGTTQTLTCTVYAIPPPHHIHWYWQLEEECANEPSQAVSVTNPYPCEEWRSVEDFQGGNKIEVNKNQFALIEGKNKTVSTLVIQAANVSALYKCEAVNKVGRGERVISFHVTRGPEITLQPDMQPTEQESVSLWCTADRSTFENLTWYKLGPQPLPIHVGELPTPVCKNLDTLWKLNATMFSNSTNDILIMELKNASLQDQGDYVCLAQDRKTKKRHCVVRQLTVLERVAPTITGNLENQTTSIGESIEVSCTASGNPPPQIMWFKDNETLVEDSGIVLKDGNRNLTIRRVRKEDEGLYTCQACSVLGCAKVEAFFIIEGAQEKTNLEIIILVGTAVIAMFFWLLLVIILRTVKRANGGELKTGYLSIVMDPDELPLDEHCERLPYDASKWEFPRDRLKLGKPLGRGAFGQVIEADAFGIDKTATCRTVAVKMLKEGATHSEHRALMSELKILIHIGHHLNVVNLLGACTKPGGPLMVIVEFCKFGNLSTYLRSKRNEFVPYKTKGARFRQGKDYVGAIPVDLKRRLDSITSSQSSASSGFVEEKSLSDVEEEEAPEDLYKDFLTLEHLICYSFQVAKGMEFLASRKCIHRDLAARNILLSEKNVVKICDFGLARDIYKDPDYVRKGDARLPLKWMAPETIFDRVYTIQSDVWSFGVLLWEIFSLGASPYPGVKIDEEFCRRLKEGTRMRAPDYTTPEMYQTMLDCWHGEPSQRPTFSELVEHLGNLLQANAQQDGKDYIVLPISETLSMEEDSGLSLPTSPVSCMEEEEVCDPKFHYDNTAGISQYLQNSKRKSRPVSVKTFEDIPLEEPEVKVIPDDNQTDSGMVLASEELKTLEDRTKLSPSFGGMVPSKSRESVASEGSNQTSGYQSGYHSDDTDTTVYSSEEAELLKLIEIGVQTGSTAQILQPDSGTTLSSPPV
pIC50: −log10 of the molar value.
readout label: pIC50

# given smiles, system under test, reading
rows = [
    ("O=C(NCCCN1CCCC1=O)c1cnccc1Nc1nc(-c2cc(Br)ccc2F)nc2nccnc12", "Vascular endothelial growth factor receptor 2 (Homo sapiens, UniProt P35968)", 6.85),
]

Origin of the recorded values: ChEMBL document CHEMBL1148862
